- Test Target: IGFR kinase (Homo sapiens, UniProt P08069)
- Construct: purchased Millipore
- Sequence (P08069 31-1367): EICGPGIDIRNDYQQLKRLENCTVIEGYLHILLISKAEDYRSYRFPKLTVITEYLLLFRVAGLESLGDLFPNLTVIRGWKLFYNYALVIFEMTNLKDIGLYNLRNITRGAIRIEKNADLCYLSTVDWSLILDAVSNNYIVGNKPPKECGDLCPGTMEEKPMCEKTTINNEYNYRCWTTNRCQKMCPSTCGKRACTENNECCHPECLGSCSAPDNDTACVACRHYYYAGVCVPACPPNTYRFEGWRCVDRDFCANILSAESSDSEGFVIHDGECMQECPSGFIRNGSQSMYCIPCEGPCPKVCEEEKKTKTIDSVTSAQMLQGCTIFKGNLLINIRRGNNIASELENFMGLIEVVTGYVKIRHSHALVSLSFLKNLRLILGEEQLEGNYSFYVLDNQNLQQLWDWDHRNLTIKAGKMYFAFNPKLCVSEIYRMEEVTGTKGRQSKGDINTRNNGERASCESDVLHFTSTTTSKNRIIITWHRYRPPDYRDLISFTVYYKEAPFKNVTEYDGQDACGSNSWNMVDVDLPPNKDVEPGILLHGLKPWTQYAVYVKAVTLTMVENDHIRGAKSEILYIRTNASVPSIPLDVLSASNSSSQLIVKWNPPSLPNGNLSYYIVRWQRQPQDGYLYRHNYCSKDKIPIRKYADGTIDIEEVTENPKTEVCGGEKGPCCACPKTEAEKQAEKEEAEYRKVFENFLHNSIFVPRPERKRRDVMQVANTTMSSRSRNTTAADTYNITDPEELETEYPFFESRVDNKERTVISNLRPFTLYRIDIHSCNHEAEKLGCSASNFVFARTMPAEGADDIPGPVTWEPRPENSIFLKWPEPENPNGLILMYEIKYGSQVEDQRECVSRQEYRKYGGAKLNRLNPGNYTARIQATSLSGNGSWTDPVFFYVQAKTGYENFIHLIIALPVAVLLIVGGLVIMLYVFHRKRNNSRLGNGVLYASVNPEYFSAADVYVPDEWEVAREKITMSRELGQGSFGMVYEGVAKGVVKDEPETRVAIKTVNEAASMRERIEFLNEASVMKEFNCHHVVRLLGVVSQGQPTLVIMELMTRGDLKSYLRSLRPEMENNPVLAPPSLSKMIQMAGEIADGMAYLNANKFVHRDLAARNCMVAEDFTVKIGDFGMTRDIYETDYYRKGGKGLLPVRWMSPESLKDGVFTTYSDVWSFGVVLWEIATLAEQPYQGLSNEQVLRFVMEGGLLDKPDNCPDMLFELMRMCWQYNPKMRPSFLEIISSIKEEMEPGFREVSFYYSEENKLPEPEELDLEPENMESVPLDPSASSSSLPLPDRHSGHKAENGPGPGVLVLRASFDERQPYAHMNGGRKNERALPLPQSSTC
- Test Method Notes: Enzyme assay (c), IGFR kinase, Caliper LabChip
- Assay type: biochemical
- Test Parameters: 30 nM IGFR kinase, 6 uM ATP, 3 uM peptide mix; read-out: IGFR IC50
Assay Readout: IC50 (nM)

> print(dat)
                                   molecule  assay.readout  numeric.value
1  COc1cc(C=O)ccc1Nc1ncc(Cl)c(-c2cnc3ccccn23)n1 [Example 20A]           IC50             68

(P) COc1ccc(N2CCNCC2)cc1Nc1ncc(Cl)c(-c2cnn3ccccc23)n1 [Example 147]
(Q) COc1cc(C2CCN(C(=O)N(C)C)CC2)ccc1Nc1ncc(Cl)c(-c2cnc3ccccn23)n1 [Example 57]
Query block: Lower value of IC50 belongs to which: P or Q ? Output the label that corresponds to your choice.
Result block: Q
(Q: 6 nM, P: 14 nM)

(A) COc1cc(C2CCN(C(C)=O)CC2)ccc1Nc1ncc(F)c(-c2cnc3ccccn23)n1 [Example 78]
(B) COc1cc(N2CCN(C(=O)CO)CC2)ccc1Nc1ncc(Cl)c(-c2cnc3ccc(F)cn23)n1 [Example 249]
Query block: Lower value of IC50 belongs to which: A or B ? Output the label that corresponds to your choice.
Result block: B

(I) CNCC(=O)N1CCN(c2ccc(OC)c(Nc3ncc(C)c(-c4cnn5ccccc45)n3)c2)CC1 [Example 167]
(II) COc1cc(N2CCN(C[C@@H](O)CO)CC2)ccc1Nc1ncc(Cl)c(-c2cnc3ccccn23)n1 [Example 53]
Query block: Thinking about recorded IC50 values, which is higher, I or II ? Output the label that corresponds to your choice.
Result block: I

(P) COc1cc(C(CO)CNC(C)=O)ccc1Nc1ncc(Cl)c(-c2cnc3ccccn23)n1 (stereo not shown) [Example 276]
(Q) COc1cc(CN2CCC(C(N)=O)CC2)ccc1Nc1ncc(Cl)c(-c2cnc3ccccn23)n1 [Example 21.7]
Query block: Thinking about recorded IC50 values, which is higher, P or Q ? Output the label that corresponds to your choice.
Result block: Q
